# measured.target: UniProt:P28845
# Sequence (P28845 whole entry): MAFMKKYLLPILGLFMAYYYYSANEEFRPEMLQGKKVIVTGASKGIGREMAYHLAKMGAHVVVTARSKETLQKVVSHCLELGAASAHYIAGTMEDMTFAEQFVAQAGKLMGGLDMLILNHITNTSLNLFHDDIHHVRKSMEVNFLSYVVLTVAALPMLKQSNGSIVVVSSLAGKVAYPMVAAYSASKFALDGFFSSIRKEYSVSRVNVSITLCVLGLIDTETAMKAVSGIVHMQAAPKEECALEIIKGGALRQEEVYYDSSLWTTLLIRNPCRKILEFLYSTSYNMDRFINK
observation.type: IC50 (nM)
Express it in nM; write the number only.

Please tell me: IC50 of COC(=O)CN(C)C(=O)N(C)Cc1ccc(C(=O)N2CC3(C)CC2CC(C)(C)C3)cc1 (stereo not shown) , system UniProt:P28845?
500
